assay: Solubility of dichroic dye compound in cyclopentanone (absorbance method); type: physicochemical; conditions: in cyclopentanone
Test readout: Solubility (wt %)
A number alone suffices; assume wt %.

# count of solved cases: 10
# Molecule, Solubility (wt %)
measured = [
    ("C=CC(=O)OCCCCOc1ccc(/N=N/c2ccc(/N=N/c3ccc(OCCCCOC(=O)C=C)cc3)cc2)cc1 [D4]", 5.7),
    ("C=CC(=O)OCCCCOc1ccc(N=Nc2ccc(N=Nc3ccc(N=Nc4ccc(N=Nc5ccc(OCCCCOC(=O)C=C)cc5)c(OC)c4)c(OC)c3)cc2)cc1 [D18]", 2.1),
    ("C=CC(=O)OCCCCOc1ccc(N=Nc2ccc(N=Nc3ccc(N=Nc4ccc(OCCCCOC(=O)C=C)cc4OC)cc3C)cc2)c(OC)c1 [D16]", 5.0),
    ("C=CC(=O)OCCCCOc1ccc(/N=N/c2ccc(/N=N/c3ccc(OCCCCOC(=O)C=C)c(C)c3)cc2)cc1 [D5]", 6.8),
    ("C=CC(=O)OCCCCOc1ccc(/N=N/c2ccc(/N=N/c3ccc(/N=N/c4ccc(OCCCCOC(=O)C=C)cc4)cc3OCCOCCOCCOC)cc2)cc1 [D8]", 4.8),
    ("C=CC(=O)OCCCCOc1ccc(N=Nc2ccc(N=Nc3ccc(N=Nc4ccc(OCCCCOC(=O)C=C)cc4)c(OC)c3)c(OC)c2)cc1 [D14]", 3.1),
    ("C=CC(=O)OCCCCOc1ccc(N=Nc2ccc(N=Nc3ccc(N=Nc4ccc(N=Nc5ccc(OCCCCOC(=O)C=C)cc5)cc4)cc3)cc2)cc1 [D22, reference compound]", 0.3),
    ("C=CC(=O)OCCCCOc1ccc(N=Nc2ccc(N=Nc3ccc(N=Nc4ccc(OCCCCOC(=O)C=C)c(OC)c4)cc3C)cc2)cc1OC [D15]", 4.3),
    ("C=CC(=O)OCCCCOc1ccc(/N=N/c2ccc(/N=N/c3ccc(/N=N/c4ccc(OCCCCOC(=O)C=C)cc4)c4ccccc34)cc2)cc1 [D13, reference compound]", 1.5),
    ("C=CC(=O)OCCCCOc1ccc(/N=N/c2ccc(/N=N/c3ccc(OCCCCOC(=O)C=C)c(C(F)(F)F)c3)cc2)cc1 [D7]", 42),
]

Problem: Fill blank: measured Solubility (wt %) of the molecule Cc1cc(/N=N/c2ccc(OCCCCOCC3(C)COC3)cc2)ccc1/N=N/c1ccc(/N=N/c2ccc(OCCCCOCC3(C)COC3)cc2)cc1 [D11] is ____.
Solution: 3.3

Problem: Repeat with C=CC(=O)OCCCCOc1ccc(/N=N/c2ccc(/N=N/c3ccc(/N=N/c4ccc(OCCCCOC(=O)C=C)cc4)cc3)cc2)cc1 [D12, reference compound]
Solution: 0.8

---

Quick reference for Solubility (wt %) among some molecules
assay: Solubility of dichroic dye compound in cyclopentanone (absorbance method); format: physicochemical; conditions: in cyclopentanone
A number alone suffices; assume wt %.

# count of solved cases: 3
# Molecule, Unit label, Solubility (wt %)
records = [
    ("C=CC(=O)OCCCCOc1ccc(/N=N/c2ccc(/N=N/c3ccc(OCCCCOC(=O)C=C)cc3C)cc2)cc1", "wt %", 18),
    ("C=CC(=O)OCCCCOc1ccc(/N=N/c2ccc(/N=N/c3ccc(/N=N/c4ccc(OCCCCCCC)cc4)cc3)c(C)c2)cc1", "wt %", 2.8),
    ("C=CC(=O)OCCCCOc1ccc(N=Nc2ccc(N=Nc3ccc(N=Nc4ccc(OCCCCOC(=O)C=C)cc4)c(C)c3)c(OC)c2)cc1", "wt %", 3.2),
]

Please look at the following molecule next.
Problem: Fill blank: measured Solubility (wt %) of the molecule "C=CC(=O)OCCCCOc1ccc(N=Nc2ccc(N=Nc3ccc(N=Nc4ccc(OCCCCOC(=O)C=C)cc4O)cc3)c(C)c2)cc1" is ____.
Solution: 1.5
